Where these numbers come from: the supplement of paper PMC7530171

# Tested on: THP-1 macrophages infected with Mycobacterium tuberculosis H37Rv
# ASSAY REMARKS: intracellular M.tb growth inhibition relative to DMSO (0) and 4 uM bedaquiline (100); higher = stronger inhibition of intracellular bacterial growth
# EXPERIMENTAL SETUP: 10 µM; 4 days
Note to self: values exactly at -50% are TRUE. So intracellular M.tb growth inhibition at or above -50% is TRUE, below is FALSE.

Answered examples (4):
NC(=S)N/N=C/c1coc2ccccc2c1=O.[Cl][Cu][Cl] | TRUE
CC(=O)c1c(O)c(C)c(O)c(Cc2c(O)c3c(c(C(=O)/C=C/c4ccccc4)c2O)OC(C)(C)C=C3)c1O [Rottlerin] | TRUE
N#C/C(=C\c1ccc(O)c(O)c1)C(N)=S | TRUE
COc1ccc2c(c1)/C(=C/c1cnc[nH]1)C(=O)N2 | FALSE

Confirm if intracellular M.tb growth inhibition reported for the compound COC[C@H]1OC(=O)c2coc3c2[C@@]1(C)C1=C(C3=O)[C@@H]2CCC(=O)[C@@]2(C)C[C@H]1OC(C)=O [Wortmannin] is -50% or above.
FALSE
